Measured values drawn from ChEMBL document CHEMBL1773008 for this set.

# Tested on: MCF7
# protocol description: Antiproliferative activity against human MCF7 cells after 72 hrs by MTS assay
# Format: functional, cell-based
# reported conditions: MCF7, 72 h
pIC50: −log10 of the molar value.

>  <smiles repr>
CC(=O)Oc1ccc(C(=O)Nc2cc3ccc(OCCN(C)C)c(C)c3oc2=O)cc1CC=C(C)C

>  <value qualifier>
=

>  <pIC50>
5.32

$$$$
>  <smiles repr>
CC(C)=CCc1cc(C(=O)Nc2cc3ccc(O[C@H]4OCCC[C@H]4O)c(C)c3oc2=O)ccc1O

>  <value qualifier>
=

>  <pIC50>
5.19

$$$$
>  <smiles repr>
CNCCOc1ccc2cc(NC(=O)c3ccc(OC(C)=O)c(CC=C(C)C)c3)c(=O)oc2c1C

>  <value qualifier>
=

>  <pIC50>
5.68

$$$$
>  <smiles repr>
CC(C)=CCc1cc(C(=O)Nc2cc3ccc(OCCN(C)C)c(C)c3oc2=O)ccc1O

>  <value qualifier>
=

>  <pIC50>
4.87

$$$$
>  <smiles repr>
CC(=O)Oc1ccc(C(=O)Nc2cc3ccc(OCCCN(C)C)c(C)c3oc2=O)cc1CC=C(C)C

>  <value qualifier>
=

>  <pIC50>
5.93

$$$$
>  <smiles repr>
CC(C)=CCc1cc(C(=O)Nc2cc3ccc(O[C@@H]4C[C@H](O)CO4)c(C)c3oc2=O)ccc1O

>  <value qualifier>
<

>  <pIC50>
4.00

$$$$
>  <smiles repr>
CC(=O)Oc1ccc(C(=O)Nc2cc3ccc(OC4CCN(C)CC4)c(C)c3oc2=O)cc1CC=C(C)C

>  <value qualifier>
=

>  <pIC50>
5.93

$$$$

----------
// IC50 lookup, one value per entry
# Test system: MCF7
# protocol description: Antiproliferative activity against human MCF7 cells after 72 hrs by MTS assay
# Format: functional, cell-based
# reported conditions: MCF7, 72 h

>  <compound>
CC(C)=CCc1cc(C(=O)Nc2cc3ccc(O[C@H]4C[C@H](O)CCO4)c(C)c3oc2=O)ccc1O

>  <IC50 [nM]>
1560

$$$$
>  <compound>
CC(C)=CCc1cc(C(=O)Nc2cc3ccc(OCCCN(C)C)c(C)c3oc2=O)ccc1O

>  <IC50 [nM]>
1350

$$$$
>  <compound>
CC(=O)Oc1ccc(C(=O)Nc2cc3ccc(OC4CCCN(C)C4)c(C)c3oc2=O)cc1CC=C(C)C (configuration not stated)

>  <IC50 [nM]>
1570

$$$$
>  <compound>
CC(C)=CCc1cc(C(=O)Nc2cc3ccc(O[C@H]4C[C@H](O)CO4)c(C)c3oc2=O)ccc1O

>  <IC50 [nM]>
22500

$$$$
>  <compound>
CC(=O)Oc1ccc(C(=O)Nc2cc3ccc(OC4CCNCC4)c(C)c3oc2=O)cc1CC=C(C)C

>  <IC50 [nM]>
1530

$$$$
>  <compound>
CC(C)=CCc1cc(C(=O)Nc2cc3ccc(OC4CCNCC4)c(C)c3oc2=O)ccc1O

>  <IC50 [nM]>
850

$$$$
>  <compound>
CO[C@@H]1[C@@H](O)[C@@H](O)[C@H](Oc2ccc3cc(NC(=O)c4ccc(O)c(CC=C(C)C)c4)c(=O)oc3c2C)OC1(C)C

>  <IC50 [nM]>
11300

$$$$
>  <compound>
CC(C)=CCc1cc(C(=O)Nc2cc3ccc(O[C@@H]4OCC[C@@H](O)[C@H]4O)c(C)c3oc2=O)ccc1O

>  <IC50 [nM]>
13300

$$$$
>  <compound>
CC(=O)Oc1ccc(C(=O)Nc2cc3ccc(OC4CCCNC4)c(C)c3oc2=O)cc1CC=C(C)C (configuration not stated)

>  <IC50 [nM]>
1540

$$$$
>  <compound>
CNCCOc1ccc2cc(NC(=O)c3ccc(O)c(CC=C(C)C)c3)c(=O)oc2c1C

>  <IC50 [nM]>
1330

$$$$
>  <compound>
CC(C)=CCc1cc(C(=O)Nc2cc3ccc(O[C@@H]4OCCC[C@H]4O)c(C)c3oc2=O)ccc1O

>  <IC50 [nM]>
10200

$$$$
>  <compound>
CC(C)=CCc1cc(C(=O)Nc2cc3ccc(O[C@H]4OCC[C@@H](O)[C@H]4O)c(C)c3oc2=O)ccc1O

>  <IC50 [nM]>
10000

$$$$
>  <compound>
CC(C)=CCc1cc(C(=O)Nc2cc3ccc(OC4CCCNC4)c(C)c3oc2=O)ccc1O (configuration not stated)

>  <IC50 [nM]>
1680

$$$$
>  <compound>
CC(C)=CCc1cc(C(=O)Nc2cc3ccc(O[C@@H]4C[C@H](O)CCO4)c(C)c3oc2=O)ccc1O

>  <IC50 [nM]>
1340

$$$$
>  <compound>
CC(C)=CCc1cc(C(=O)Nc2cc3ccc(OC4CCCN(C)C4)c(C)c3oc2=O)ccc1O (configuration not stated)

>  <IC50 [nM]>
10100

$$$$
>  <compound>
CC(C)=CCc1cc(C(=O)Nc2cc3ccc(O[C@@H]4OC[C@@H](O)[C@H]4O)c(C)c3oc2=O)ccc1O

>  <IC50 [nM]>
14300

$$$$
>  <compound>
CC(C)=CCc1cc(C(=O)Nc2cc3ccc(OC4CCN(C)CC4)c(C)c3oc2=O)ccc1O

>  <IC50 [nM]>
1090

$$$$
